Catalogue of MIC values
- System: Acinetobacter baumannii
- experimental details: Antibacterial activity against polymyxin-susceptible Acinetobacter baumannii ATCC 19606 clinical isolates assessed as reduction in bacterial growth by broth microdilution method
- Format: functional
Bridge positions count the residues as written; N and C are the ends. Square brackets hold non-standard residues; d marks the D form. Peptide text beside a SMILES is read from it. * marks the point of attachment. X1 = CC[C@H](C)CCCCC(=O)*; Dab = NCC[C@H](N)C(=O)O

compound: CC[C@H](C)CCCCC(=O)N[C@@H](CCN)C(=O)N[C@H](C(=O)N[C@@H](CCN)C(=O)N[C@H]1CCNC(=O)[C@H](Cc2c[nH]c3ccccc23)NC(=O)[C@H](CCN)NC(=O)[C@H](CCN)NC(=O)[C@H](CC(C)C)NC(=O)[C@@H](Cc2ccccc2)NC(=O)[C@H](CCN)NC1=O)[C@@H](C)O
display unit: µg/mL
value operator: =
MIC: 2
--
compound: CC[C@H](C)CCCCC(=O)N[C@@H](CCN)C(=O)N[C@H](C(=O)N[C@@H](CCN)C(=O)N[C@H]1CCNC(=O)CNC(=O)[C@H](CCN)NC(=O)[C@H](CCN)NC(=O)[C@H](CC(C)C)NC(=O)[C@@H](Cc2ccccc2)NC(=O)[C@H](CCN)NC1=O)[C@@H](C)O
display unit: µg/mL
value operator: >
MIC: 32
--
compound: CC[C@H](C)CCCCC(=O)N[C@@H](CCN)C(=O)N[C@H](C(=O)N[C@@H](CCN)C(=O)N[C@H]1CCNC(=O)[C@H](CCO)NC(=O)[C@H](CCN)NC(=O)[C@H](CCN)NC(=O)[C@H](CC(C)C)NC(=O)[C@@H](Cc2ccccc2)NC(=O)[C@H](CCN)NC1=O)[C@@H](C)O
display unit: µg/mL
value operator: >
MIC: 32
--
compound: CC[C@H](C)CCCCC(=O)N[C@@H](CCN)C(=O)N[C@H](C(=O)N[C@@H](CCN)C(=O)N[C@H]1CCNC(=O)[C@H](Cc2ccc(O)cc2)NC(=O)[C@H](CCN)NC(=O)[C@H](CCN)NC(=O)[C@H](CC(C)C)NC(=O)[C@@H](Cc2ccccc2)NC(=O)[C@H](CCN)NC1=O)[C@@H](C)O
display unit: µg/mL
value operator: =
MIC: 2
--
compound: CCC[C@@H]1NC(=O)[C@H](CCN)NC(=O)[C@H](CCN)NC(=O)[C@H](CC(C)C)NC(=O)[C@@H](Cc2ccccc2)NC(=O)[C@H](CCN)NC(=O)[C@@H](NC(=O)[C@H](CCN)NC(=O)[C@@H](NC(=O)[C@H](CCN)NC(=O)CCCC[C@@H](C)CC)[C@@H](C)O)CCNC1=O
display unit: µg/mL
value operator: =
MIC: 4
--
compound: CC[C@H](C)CCCCC(=O)N[C@@H](CCN)C(=O)N[C@H](C(=O)N[C@@H](CCN)C(=O)N[C@H]1CCNC(=O)[C@H](C(C)(C)O)NC(=O)[C@H](CCN)NC(=O)[C@H](CCN)NC(=O)[C@H](CC(C)C)NC(=O)[C@@H](Cc2ccccc2)NC(=O)[C@H](CCN)NC1=O)[C@@H](C)O
display unit: µg/mL
value operator: =
MIC: 8
--
compound: CC[C@H](C)CCCCC(=O)N[C@@H](CCN)C(=O)N[C@H](C(=O)N[C@@H](CCN)C(=O)N[C@H]1CCNC(=O)[C@H](CC(C)C)NC(=O)[C@H](CCN)NC(=O)[C@H](CCN)NC(=O)[C@H](CC(C)C)NC(=O)[C@@H](Cc2ccccc2)NC(=O)[C@H](CCN)NC1=O)[C@@H](C)O (X1-[Dab]T[Dab][Dab][Dab][dF]L[Dab][Dab]L; lactam 4-C)
display unit: µg/mL
value operator: =
MIC: 16
--
compound: CC[C@H](C)CCCCC(=O)N[C@@H](CCN)C(=O)N[C@H](C(=O)N[C@@H](CCN)C(=O)N[C@H]1CCNC(=O)[C@H](CN)NC(=O)[C@H](CCN)NC(=O)[C@H](CCN)NC(=O)[C@H](CC(C)C)NC(=O)[C@@H](Cc2ccccc2)NC(=O)[C@H](CCN)NC1=O)[C@@H](C)O
display unit: µg/mL
value operator: =
MIC: 2
--
compound: CC[C@H](C)CCCCC(=O)N[C@@H](CCN)C(=O)N[C@H](C(=O)N[C@@H](CCN)C(=O)N[C@H]1CCNC(=O)[C@H](CCN)NC(=O)[C@H](CCN)NC(=O)[C@H](CCN)NC(=O)[C@H](CC(C)C)NC(=O)[C@@H](Cc2ccccc2)NC(=O)[C@H](CCN)NC1=O)[C@@H](C)O
display unit: µg/mL
value operator: =
MIC: 16
--
compound: CC[C@H](C)CCCCC(=O)N[C@@H](CCN)C(=O)N[C@H](C(=O)N[C@@H](CCN)C(=O)N[C@H]1CCNC(=O)[C@H](CCC(=O)O)NC(=O)[C@H](CCN)NC(=O)[C@H](CCN)NC(=O)[C@H](CC(C)C)NC(=O)[C@@H](Cc2ccccc2)NC(=O)[C@H](CCN)NC1=O)[C@@H](C)O
display unit: µg/mL
value operator: >
MIC: 32
--
compound: CC[C@H](C)CCCCC(=O)N[C@@H](CCN)C(=O)N[C@H](C(=O)N[C@@H](CCN)C(=O)N[C@H]1CCNC(=O)[C@H](CC(N)=O)NC(=O)[C@H](CCN)NC(=O)[C@H](CCN)NC(=O)[C@H](CC(C)C)NC(=O)[C@@H](Cc2ccccc2)NC(=O)[C@H](CCN)NC1=O)[C@@H](C)O
display unit: µg/mL
value operator: >
MIC: 32
--
compound: CC[C@H](C)CCCCC(=O)N[C@@H](CCN)C(=O)N[C@H](C(=O)N[C@@H](CCN)C(=O)N[C@H]1CCNC(=O)[C@H](CS)NC(=O)[C@H](CCN)NC(=O)[C@H](CCN)NC(=O)[C@H](CC(C)C)NC(=O)[C@@H](Cc2ccccc2)NC(=O)[C@H](CCN)NC1=O)[C@@H](C)O
display unit: µg/mL
value operator: =
MIC: 16
--
compound: CC[C@H](C)CCCCC(=O)N[C@@H](CCN)C(=O)N[C@H](C(=O)N[C@@H](CCN)C(=O)N[C@H]1CCNC(=O)[C@H](C(C)C)NC(=O)[C@H](CCN)NC(=O)[C@H](CCN)NC(=O)[C@H](CC(C)C)NC(=O)[C@@H](Cc2ccccc2)NC(=O)[C@H](CCN)NC1=O)[C@@H](C)O
display unit: µg/mL
value operator: =
MIC: 4
--
compound: CC[C@H](C)CCCCC(=O)N[C@@H](CCN)C(=O)N[C@H](C(=O)N[C@@H](CCN)C(=O)N[C@H]1CCNC(=O)[C@H](CO)NC(=O)[C@H](CCN)NC(=O)[C@H](CCN)NC(=O)[C@H](CC(C)C)NC(=O)[C@@H](Cc2ccccc2)NC(=O)[C@H](CCN)NC1=O)[C@@H](C)O
display unit: µg/mL
value operator: =
MIC: 2

---

This section presents compounds with their documented MIC values.
- Test system: Klebsiella pneumoniae
- experimental details: Antibacterial activity against polymyxin-susceptible Klebsiella pneumoniae ATCC 700721 clinical isolates assessed as reduction in bacterial growth by broth microdilution method
- Assay type: functional

smiles structure: CC[C@H](C)CCCCC(=O)N[C@@H](CCN)C(=O)N[C@H](C(=O)N[C@@H](CCN)C(=O)N[C@H]1CCNC(=O)[C@H](CCCN)NC(=O)[C@H](CCN)NC(=O)[C@H](CCN)NC(=O)[C@H](CC(C)C)NC(=O)[C@@H](Cc2ccccc2)NC(=O)[C@H](CCN)NC1=O)[C@@H](C)O
display unit: µg/mL
MIC: 32
--
smiles structure: CC[C@H](C)CCCCC(=O)N[C@@H](CCN)C(=O)N[C@H](C(=O)N[C@@H](CCN)C(=O)N[C@H]1CCNC(=O)[C@H](CS)NC(=O)[C@H](CCN)NC(=O)[C@H](CCN)NC(=O)[C@H](CC(C)C)NC(=O)[C@@H](Cc2ccccc2)NC(=O)[C@H](CCN)NC1=O)[C@@H](C)O
display unit: µg/mL
MIC: 16

---

Listed compounds paired with reported MIC
- System: Acinetobacter baumannii
- experimental details: Antibacterial activity against polymyxin-susceptible Acinetobacter baumannii ATCC 17978 clinical isolates assessed as reduction in bacterial growth by broth microdilution method
- Type: functional

smiles structure: CC[C@H](C)CCCCC(=O)N[C@@H](CCN)C(=O)N[C@H](C(=O)N[C@@H](CCN)C(=O)N[C@H]1CCNC(=O)[C@H](CCSC)NC(=O)[C@H](CCN)NC(=O)[C@H](CCN)NC(=O)[C@H](CC(C)C)NC(=O)[C@@H](Cc2ccccc2)NC(=O)[C@H](CCN)NC1=O)[C@@H](C)O
target: Acinetobacter baumannii
MIC: 4 µg/mL

smiles structure: CC[C@H](C)CCCCC(=O)N[C@@H](CCN)C(=O)N[C@H](C(=O)N[C@@H](CCN)C(=O)N[C@H]1CCNC(=O)[C@H]([C@@H](C)O)NC(=O)[C@H](CCN)NC(=O)[C@H](CCN)NC(=O)[C@H](CC(C)C)NC(=O)[C@@H](Cc2ccccc2)NC(=O)[C@H](CCN)NC1=O)[C@@H](C)O
target: Acinetobacter baumannii
MIC: 1 µg/mL
